The reported numbers originate from ChEMBL document CHEMBL4665624.

Tested on: SNB-75
Experiment: Antitumor activity against human SNB-75 cells assessed as cell growth inhibition at 10 uM incubated for 48 hrs by sulforhodamine B assay
Assay type: functional
Details: read-out: GI
readout_name: inhibition of growth at 10 µM (%)
Only the number, expressed in %, is required.

Example results:
Oc1ccccc1-c1nc2c3ccccc3c3ccccc3c2[nH]1    11.1
O=c1[nH]cc(F)c(=O)[nH]1    65.9
O=C1c2ccccc2C(=O)c2c1ccc1[nH]c(-c3ccc(-c4nc5c6ccccc6c6ccccc6c5[nH]4)cc3)nc21    10

Moving on to another compound below.
Task item: Which inhibition of growth at 10 µM value is on record for Oc1ccccc1-c1nc2c3ccccc3c3ccccc3c2o1 ?
Reply: 10.3
